# Subject Of Test: 4-hydroxy-3-methylbut-2-enyl diphosphate reductase (Aquifex aeolicus (strain VF5), UniProt O67625)
# Sequence (O67625 whole entry): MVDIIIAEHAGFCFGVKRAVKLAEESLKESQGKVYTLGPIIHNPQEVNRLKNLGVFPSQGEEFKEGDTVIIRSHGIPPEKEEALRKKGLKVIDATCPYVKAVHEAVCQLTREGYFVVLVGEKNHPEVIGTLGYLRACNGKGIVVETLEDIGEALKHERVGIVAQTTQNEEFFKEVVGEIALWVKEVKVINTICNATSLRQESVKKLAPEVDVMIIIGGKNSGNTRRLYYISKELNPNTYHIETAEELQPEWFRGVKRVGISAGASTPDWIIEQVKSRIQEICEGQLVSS
# Run Description: In Silico Screening
Endpoint Label: Ki (nM)
Quick reminder: number only, in nM, skip the unit.

### Prompt Give the measured Ki of Nc1ccc2c(c1)CC1(C(=O)NC(=O)NC1=O)C1CN(Cc3ccccc3)CCN21 (stereo unspecified) .
### Response 700
